Some molecules, each annotated with its measured pIC50.
Test system: cultured human mast cells
Assay: Degranulation inhibition test using cultured human mast cells (IgE cross-linking, β-Hexosaminidase release)
Format: cell-based
Conditions: Mast cell; cultured human mast cells, anti-hIgE stimulation, β-Hexosaminidase index, average; read-out: human degranulation ave. IC50
pIC50: −log10 of the molar value. Counter-ions that a name gives are not always drawn.

Molecule	pIC50
Cc1ccnc(Nc2cccc(-c3cnc([C@H]4CC[C@H](C(N)=O)CC4)s3)n2)c1 [Compound A-111]	6.00 to 7.00
CNC(=O)C1CCN(c2ncc(-c3cccc(Nc4cc(C)ccn4)n3)s2)CC1 [Compound A-4]	< 6.00
Cc1ccnc(Nc2cccc(-c3cnc(N4CCC(CC(=O)O)CC4)s3)n2)c1 [Compound A-15, dihydrochloride]	6.00 to 7.00
COc1ccnc(Nc2cccc(-c3cnc([C@H](C)NC(C)=O)s3)n2)c1 [Compound A-77]	6.00 to 7.00
Cc1ccnc(Nc2cccc(-c3cnc(CN4C(=O)CCCC4=O)s3)n2)c1 [Compound A-350]	6.00 to 7.00
COC(=O)N1CCC(c2ncc(-c3cccc(Nc4cc(C)ccn4)n3)s2)CC1 [Compound A-170]	6.00 to 7.00
CC(=O)N[C@@H](C)c1ncc(-c2cccc(Nc3cc(Cl)ccn3)n2)s1 [Compound A-81]	6.00 to 7.00
Cc1ccnc(Nc2cccc(-c3cnc([C@@H]4COC(=O)N4)s3)n2)c1 [Compound A-14]	6.00 to 7.00
CCOC(=O)C1CCN(Cc2ncc(-c3cccc(Nc4cc(C)ccn4)n3)s2)CC1 [Compound A-167]	< 6.00
Cc1ccnc(Nc2cccc(-c3cnc(CCC4CCN(C(=O)C5CCNCC5)CC4)s3)n2)c1 [Compound A-295]	< 6.00
Cc1ccnc(Nc2cccc(-c3cnc([C@H]4CC[C@H](C(=O)N5CCC(NC(=O)CO)C5)CC4)s3)n2)c1 (stereo partly shown) [Compound A-313]	6.00 to 7.00
Cc1ccnc(Nc2cccc(-c3cnc(CC(=O)N4CCC(O)CC4)s3)n2)c1 [Compound A-230]	< 6.00
CC(=O)O[C@@H](c1ccccc1)c1ncc(-c2cccc(Nc3cc(C)ccn3)n2)s1 [Compound A-318]	< 6.00
Cc1ccnc(Nc2cccc(-c3cnc(CCc4ccc(NS(C)(=O)=O)cc4)s3)n2)c1 [Compound A-221]	< 6.00
CNC(=O)N1CCN(c2ncc(-c3cccc(Nc4cc(C)ccn4)n3)s2)CC1 [Compound A-427]	> 7.00
Cc1ccnc(Nc2cccc(-c3cnc(CNCC4(O)CCCCC4)s3)n2)c1 [Compound A-196]	6.00 to 7.00

* * *

Some compounds, each annotated with its measured IC50.
Biological target: GST-Syk Full Protein (human) (Homo sapiens, UniProt P43405)
Experiment: Syk kinase inhibition test (HTRF method)
Type: biochemical
Conditions: HTRF, 100 μM ATP, 30 min room temperature, average; read-out: sykHTRF ave IC50

Compound	IC50
Cc1ccnc(Nc2cccc(-c3cnc(CC(C)(C)CC(=O)O)s3)n2)c1	100 to 1000 nM
Cc1ccnc(Nc2cccc(-c3cnc([C@H](Cc4ccccc4)NC(=O)OC(C)(C)C)s3)n2)c1	> 1000 nM
Cc1ccnc(Nc2cccc(-c3cnc([C@H]4CC[C@H](C(=O)N5CCC[C@@H]5CO)CC4)s3)n2)c1	< 100 nM
CC(=O)N(C)[C@@H](C)c1ncc(-c2cccc(Nc3cc(C)ccn3)n2)s1	< 100 nM
CC(=O)N[C@@H](Cc1ccccc1)c1ncc(-c2cccc(Nc3cc(C)ccn3)n2)s1	100 to 1000 nM
Cc1ccnc(Nc2cccc(-c3cnc([C@H](C)NC(=O)c4ccc(O)cc4)s3)n2)c1	100 to 1000 nM
CC(=O)N[C@@H](C)c1ncc(-c2cccc(Nc3cc(-c4ccncc4)ccn3)n2)s1	< 100 nM
Cc1ccnc(Nc2cccc(-c3cnc(CN[C@H]4CC[C@H](O)CC4)s3)n2)c1	100 to 1000 nM
Cc1ccnc(Nc2cccc(-c3cnc([C@H]4CC[C@H](C(=O)N5C[C@H](O)C[C@H](O)C5)CC4)s3)n2)c1	100 to 1000 nM
Cc1ccnc(Nc2cccc(-c3cnc([C@H](C)N(C)C(=O)OC(C)(C)C)s3)n2)c1	100 to 1000 nM
Cc1ccnc(Nc2cccc(-c3cnc([C@@H]4CCCN4)s3)n2)c1	100 to 1000 nM
Cc1ccnc(Nc2cccc(-c3cnc([C@H]4CC[C@H](C(=O)N5CCN(C)CC5)CC4)s3)n2)c1	100 to 1000 nM
CC(=O)N[C@@H](C)c1ncc(-c2cccc(Nc3cc4ccccc4cn3)n2)s1	< 100 nM
Cc1ccnc(Nc2cccc(-c3cnc(CCC4CCC(O)CC4)s3)n2)c1 (centres unmarked)	< 100 nM
CC(=O)Nc1nc([C@H](C)NC(C)=O)sc1-c1cccc(Nc2cc(C)ccn2)n1	> 1000 nM
C[C@H](O)c1ncc(-c2cccc(Nc3cc(OCCO)ccn3)n2)s1	< 100 nM
Cc1ccnc(Nc2cccc(-c3cnc(CCc4ccc(OCc5ccccc5)cc4)s3)n2)c1	> 1000 nM
Cc1ccnc(Nc2cccc(-c3cnc([C@H]4CC[C@H](c5noc(=O)[nH]5)CC4)s3)n2)c1	< 100 nM
Cc1ccnc(Nc2cccc(-c3cnc(CCC4CCN(C(=O)C5CCC(=O)CC5)CC4)s3)n2)c1	100 to 1000 nM
Cc1ccnc(Nc2cccc(-c3cnc([C@H](C)NC(=O)CO)s3)n2)c1	< 100 nM
Cc1ccnc(Nc2cccc(-c3cncs3)n2)c1	100 to 1000 nM
Cc1ccnc(Nc2cccc(-c3cnc(N4CCC(C(C)(C)C(=O)O)CC4)s3)n2)c1	< 100 nM
COc1ccnc(Nc2cccc(-c3cnc([C@H](C)N)s3)n2)c1	100 to 1000 nM
Cc1ccnc(Nc2cccc(-c3cnc([C@@H]4COC(C)(C)N4C(=O)OC(C)(C)C)s3)n2)c1	> 1000 nM
Cc1ccnc(Nc2cccc(-c3cnc([C@H]4CC[C@H](CNS(C)(=O)=O)CC4)s3)n2)c1	< 100 nM
Cc1ccnc(Nc2cccc(-c3cnc([C@H]4CC[C@H](C(=O)N5CCC(CO)CC5)CC4)s3)n2)c1	100 to 1000 nM
Cc1ccnc(Nc2cccc(-c3cnc(CCc4ccc(N)cc4)s3)n2)c1	100 to 1000 nM
CCOC(=O)Cc1ccnc(Nc2cccc(-c3cnc([C@H](C)NC(C)=O)s3)n2)c1	100 to 1000 nM
Cc1ccnc(Nc2cccc(-c3cnc(C(=O)NC(C)(C)CO)s3)n2)c1	100 to 1000 nM
CCOC(=O)c1nc([C@H](C)NC(=O)OC(C)(C)C)sc1-c1cccc(Nc2cc(C)ccn2)n1	> 1000 nM
Cc1ccnc(Nc2cccc(-c3cnc(CNc4ccc(CC(=O)O)cc4)s3)n2)c1	100 to 1000 nM
CC(=O)O[C@@H](C)c1ncc(-c2cccc(Nc3cc(C)ccn3)n2)s1	< 100 nM

* * *

System: cultured human mast cells
Assay: Degranulation inhibition test using cultured human mast cells (IgE cross-linking, β-Hexosaminidase release)
Type: cell-based
Conditions: Mast cell; cultured human mast cells, anti-hIgE stimulation, β-Hexosaminidase index, average; read-out: human degranulation ave. IC50
Some compounds, each annotated with its measured IC50.

Compound	IC50
Cc1ccnc(Nc2cccc(-c3cnc(C4CCCC(C(=O)N5CCC(O)CC5)C4)s3)n2)c1 (stereo not shown)	100 to 1000 nM
CC(=O)N1CCC(CCc2ncc(-c3cccc(Nc4cc(C)ccn4)n3)s2)CC1	100 to 1000 nM
CC(=O)N[C@@H](C)c1ncc(-c2cccc(Nc3cc(OCc4ccccc4)ccn3)n2)s1	100 to 1000 nM
Cc1ccnc(Nc2cccc(-c3cnc([C@H]4CC[C@H](C(=O)N5CCC(N)CC5)CC4)s3)n2)c1	> 1000 nM
Cc1ccnc(Nc2cccc(-c3cnc([C@H](C)NC(=O)[C@H](C)O)s3)n2)c1	100 to 1000 nM
Cc1ccnc(Nc2cccc(-c3cnc(CC(=O)N4C[C@@H](O)[C@@H](O)C4)s3)n2)c1	100 to 1000 nM
Cc1ccnc(Nc2cccc(-c3cnc([C@H]4CC[C@H](C(=O)N5CCNC(=O)C5)CC4)s3)n2)c1	> 1000 nM
Cc1ccnc(Nc2cccc(-c3cnc([C@@H](N)COCc4ccccc4)s3)n2)c1	> 1000 nM
Cc1ccnc(Nc2cccc(-c3cnc(C4CCC(=O)CC4)s3)n2)c1	100 to 1000 nM
Cc1ccnc(Nc2cccc(-c3cnc(CCc4ccc(O)cc4)s3)n2)c1	100 to 1000 nM
CC(=O)Oc1ccc(CC(OC(C)=O)c2ncc(-c3cccc(Nc4cc(C)ccn4)n3)s2)cc1 (stereo not shown)	> 1000 nM
Cc1ccnc(Nc2cccc(-c3cnc(C(C)(C)NC(=O)OC(C)(C)C)s3)n2)c1	> 1000 nM
O=C(O)Cc1ccnc(Nc2cccc(-c3cnc([C@@H]4CCC(=O)N4)s3)n2)c1	100 to 1000 nM
COc1ccc(CCc2ncc(-c3cccc(Nc4cc(C)ccn4)n3)s2)cc1	> 1000 nM
CC(=O)N1CCC(c2ncc(-c3cccc(Nc4cc(C)ccn4)n3)s2)CC1	100 to 1000 nM
CC(=O)NCCCC[C@H](NC(C)=O)c1ncc(-c2cccc(Nc3cc(C)ccn3)n2)s1	100 to 1000 nM
